Could you please report measured switch fluorescence ratio for the items listed next?
- System: ATP;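 note: ATP exposure 15 min at 22 °C before imaging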
- Test description: switch fluorescence ratio, 500 uM ATP over buffer (Cy3 cluster intensity, sum of 5 cycles each) (fold (ratio)); higher = stronger signal-on switching upon ATP binding; sequences stand for … in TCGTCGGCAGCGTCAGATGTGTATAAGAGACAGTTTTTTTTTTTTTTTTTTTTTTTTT…TC
- Recorded conditions: aptamer strand: ATP DNA aptamer (quencher-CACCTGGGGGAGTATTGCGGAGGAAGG + anchor), 100 nM annealed; ATP concentration: 500 uM
Respond using a number only.

Record lookup: for ATP, what switch fluorescence ratio belongs to `CCTTTCTTTT` ?
1.04

Lab note: need switch fluorescence ratio with ATP for entry `ATATCTGCTT` , please look it up.
0.978

Find the measured switch fluorescence ratio: item `ACCTTAGTGC` , target or system ATP.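 Note: ATP exposure 15 min at 22 °C before imaging.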
1.1

Return switch fluorescence ratio measured with ATP given this sequence: `GATGAATTGG`
0.975

Lab note: need switch fluorescence ratio with ATP for entry `GGACGATTTG` , please look it up.
1.05

Hello, I am looking for reported switch fluorescence ratio with ATP for `GGGGTTTTAC` . Could you help?
0.995

What measured switch fluorescence ratio is associated with `TATGAGGGGT` on ATP?
1.13

Could you share what switch fluorescence ratio was measured for `CCCCGAAACT` , tested on ATP?;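 note: ATP exposure 15 min at 22 °C before imaging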
2.28

Item: `CGCCTGGGGT` Test system: ATP Read-out: switch fluorescence ratio Value: ?;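 note: ATP exposure 15 min at 22 °C before imaging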
1.64

ATP / switch fluorescence ratio / `AAACGGTAGC` : value?;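 note: ATP exposure 15 min at 22 °C before imaging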
1.07

Item: `TGGGGAGGGA` Test system: ATP Read-out: switch fluorescence ratio Value: ?;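 note: ATP exposure 15 min at 22 °C before imaging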
0.983

Please provide the recorded switch fluorescence ratio for `AAGAGTGGCT` , tested on ATP.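 Note: ATP exposure 15 min at 22 °C before imaging.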
1.03

Any idea what switch fluorescence ratio came out for `CTTTACTTTT` on ATP?
1.01

Look up switch fluorescence ratio with ATP for this sequence: `TCCAGGAGTG`
1.15

Lab request: please report switch fluorescence ratio under test system ATP for `GGCAGAAATG`;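 note: ATP exposure 15 min at 22 °C before imaging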
0.994

Record lookup: for ATP, what switch fluorescence ratio belongs to `TTGGTGTTGG` ?
1.01

Item `GTTGGAAAGT` with ATP - switch fluorescence ratio?
0.99

// fetch ATP switch fluorescence ratio for `GAGCTACCCG`
1.04

Return switch fluorescence ratio measured with ATP given this sequence: `TAATCACGGG`
1.09

Form entry - test system: ATP; read-out: switch fluorescence ratio; sequence: `TAGGTTGTTG`;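 note: ATP exposure 15 min at 22 °C before imaging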
0.969

* * *

- Test system: ATP;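 note: ATP exposure 15 min at 22 °C before imaging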
- Test description: switch fluorescence ratio, 500 uM ATP over buffer (Cy3 cluster intensity, sum of 5 cycles each) (fold (ratio)); higher = stronger signal-on switching upon ATP binding; sequences stand for … in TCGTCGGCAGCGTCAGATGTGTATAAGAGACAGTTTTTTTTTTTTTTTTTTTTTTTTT…TC
- Recorded conditions: aptamer strand: ATP DNA aptamer (quencher-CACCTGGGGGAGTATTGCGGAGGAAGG + anchor), 100 nM annealed; ATP concentration: 500 uM
Exercise: for every item that follows, state its recorded switch fluorescence ratio.
No unit in the answer, only the number.

Would you kindly share the measured switch fluorescence ratio for `CGCTGACAAG` ?
0.992

// returns reported switch fluorescence ratio for input `AATGGGCGTC`
0.99

Sample `ATCGCGGGCA` — what was its switch fluorescence ratio?
1.02

What does the record list as switch fluorescence ratio for `GGCATAGCCC` ?
0.954

Sample `GTTGTATTAG` — what was its switch fluorescence ratio?
0.988

Give its switch fluorescence ratio value. Item: `GCAGTTGGTA`
0.989

Requested read-out: switch fluorescence ratio. Entry: `GCAGCTTCGG`
0.984

State the recorded switch fluorescence ratio for this entry: `AGCTGAAGCC`
1.03

Looking for the measured switch fluorescence ratio of `GGGTTGTCAA` , can you help?
0.975

switch fluorescence ratio for `GAGGTTATAC` ?
1.38

Fill blank: measured switch fluorescence ratio of the sequence `TTGGTGTGTT` is ____.
1.01

Any idea what its switch fluorescence ratio is? The sequence is `GCATTGAGGT`
1

Would you mind telling me what switch fluorescence ratio value was observed for `ATTATTAAAT` ?
1.08

Request the reported switch fluorescence ratio associated with `TGGCGGAACA`
1.02

If you can, please state the reported switch fluorescence ratio value of `TATTGTGGAG` .
0.983

Report switch fluorescence ratio for `AGGGGCGTAC` please.
1.07

# lookup: switch fluorescence ratio of `GGGAATGCTA`
1

Consider the sequence `TTCCGGGTTT` and give its measured switch fluorescence ratio.
1.2

Could you tell me which switch fluorescence ratio is on file for `GGGATTTGCT` ?
0.963

Query (sequence): `TCAGTCATTA` ; field requested: switch fluorescence ratio
0.989

* * *

- System: ATP;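 note: ATP exposure 15 min at 22 °C before imaging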
- Test description: switch fluorescence ratio, 500 uM ATP over buffer (Cy3 cluster intensity, sum of 5 cycles each) (fold (ratio)); higher = stronger signal-on switching upon ATP binding; sequences stand for … in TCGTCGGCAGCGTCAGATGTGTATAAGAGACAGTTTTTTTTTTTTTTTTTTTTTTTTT…TC
- Recorded conditions: aptamer strand: ATP DNA aptamer (quencher-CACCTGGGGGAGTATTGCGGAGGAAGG + anchor), 100 nM annealed; ATP concentration: 500 uM
Reported property: switch fluorescence ratio
Please respond with just the number, no unit label.

Which switch fluorescence ratio value belongs to `ACAAACTGCA` ?
1.17

Value lookup for switch fluorescence ratio; key = `GACTGCATCG`
1.03

Which switch fluorescence ratio value belongs to `TGGAAGGGCT` ?
1.05

What value of measured switch fluorescence ratio is listed for `GTATGTCCCC` ?
1.02

// returns reported switch fluorescence ratio for input `TAATTAGAGT`
0.967

Returns the measured switch fluorescence ratio for the input sequence. Input: `GGGTCGTCAT`
1.01

Need switch fluorescence ratio, item `CATCGAGTGT`
1.05

If you can, please state the reported switch fluorescence ratio value of `GGGGGCCGGG` .
1.01

Can you share its switch fluorescence ratio? I mean this sequence: `ATTTTCTTGC`
1

Given the entry `GGGGCATAAG` , report its measured switch fluorescence ratio.
1.01

Recorded switch fluorescence ratio of `TTGAGGCCCG` , please.
0.937

I am curious: what switch fluorescence ratio value has been reported for `TCAAAGAATA` ?
1.02

Which value of switch fluorescence ratio has been reported for `TTGACGAGGT` in the records?
1.07

What measured switch fluorescence ratio goes with `TTAGGACTT` ?
1.02

What does the record list as switch fluorescence ratio for `GGTTTGAGGT` ?
0.993

# input sequence: `ATAGGAGGTG` ; wanted: its switch fluorescence ratio
1.07

Quick one: switch fluorescence ratio of `GCGACGGGT` ?
1.02

Fill in: switch fluorescence ratio of `AGCGACCCGG` is ___
1.08

Which switch fluorescence ratio value belongs to `TAGGCCGCTG` ?
1.07

// returns reported switch fluorescence ratio for input `TTCGGGGGAT`
1.01

Which switch fluorescence ratio is listed for `GTGTTATGCA` ?
1.01

For the sequence `GCGGGGGGTG` , what switch fluorescence ratio is on record?
1.01

Dear colleague, I am looking for the recorded switch fluorescence ratio of the following sequence: `TTAACTTGTG`
0.986

Look up switch fluorescence ratio: `AAAACAGCCG`
0.957

Report switch fluorescence ratio for `TTGGTGGGGC` please.
0.98

Bench note: what switch fluorescence ratio did `GATGTTAGGT` show?
0.996

Please look up its switch fluorescence ratio: `AAGGAGCTAT`
1.05

Form field: reported switch fluorescence ratio of `CGTGAGTACG`
0.992

Which switch fluorescence ratio is reported for this sequence? `GGGTGGGGGG`
1.01

// switch fluorescence ratio lookup, key: `ACGACGGTAG`
1.02

Look at this sequence and give its reported switch fluorescence ratio. `CAATGTCTGG`
1.01

Item under review: `TTCTAGGGGG` . Reported switch fluorescence ratio?
1.02

Return reported switch fluorescence ratio; argument: `GGGGGTACGC`
1.03

// query switch fluorescence ratio value for entry `TGGGGTACGT`
1.02

Given the sequence `AATCCGAGGA` , what is its reported switch fluorescence ratio?
1.05

Name the reported switch fluorescence ratio value associated with the sequence `AAACGGATTC`
0.999

Which switch fluorescence ratio is listed for `TGTTGTTTGA` ?
0.991

What value of switch fluorescence ratio has been reported for the following sequence? `CCAGGGGCTG`
1.67

Give the measured switch fluorescence ratio of `TCGGTTTCG` .
0.989

switch fluorescence ratio lookup needed for `AATGAGGGGA` , thanks.
1

GET /values?readout=switch fluorescence ratio&item= `TTCAGGGGTT`
1.04

Value lookup for switch fluorescence ratio; key = `TTGTGAGGCA`
1.01

switch fluorescence ratio for `ATACCGAAGT` ?
1.17

Please look up its switch fluorescence ratio: `TAACCAGTTA`
1.04

Look up switch fluorescence ratio for this sequence: `GGTTTTGTGG`
1.01

Dear colleague, I am looking for the recorded switch fluorescence ratio of the following sequence: `TGATAGCCAG`
0.96

Find the recorded switch fluorescence ratio belonging to `CTGCGCAAGG` and report it.
6.27

Which switch fluorescence ratio value is on record for `GTCTTTTACG` ?
1.01

What does the data say about its switch fluorescence ratio? Entry: `GGTCTCTTAC`
1.02

// returns reported switch fluorescence ratio for input `GTCATGAGAT`
0.999

// query switch fluorescence ratio value for entry `GTGAAGGGGT`
1

So what's the measured switch fluorescence ratio for this one? `TTTTTAGGAA`
1.04

Name the recorded switch fluorescence ratio for `GGCGAATGGG` .
0.98

Any idea what switch fluorescence ratio was measured for `AGCAAAGAAT` ?
1.02

# query: switch fluorescence ratio of entry `AGAGGCGCGT`
0.946

Given the entry `TTCGTTTGCA` , report its measured switch fluorescence ratio.
1.38

# lookup: switch fluorescence ratio of `GAGAAAAACC`
1.02

Return reported switch fluorescence ratio; argument: `ACTTACGGGC`
1.51

Query: switch fluorescence ratio; subject: `TTTAATCAGG`
1.04

State the recorded switch fluorescence ratio for this entry: `GCGTAATCTT`
0.988

Quick check: switch fluorescence ratio of `TGACTTGGAC` ?
1.02

So what's the measured switch fluorescence ratio for this one? `TGGGATTTGG`
0.984

Suppose we examine the sequence `AATGTTTAAA` ; what switch fluorescence ratio value has been reported?
0.976

Requested field: switch fluorescence ratio. Item: `GAAAGGCAAA`
1.02

So what's the measured switch fluorescence ratio for this one? `AGGGGTACTG`
1.01

Could you share which switch fluorescence ratio value was measured for `CAATTATGAC` ?
1

State the recorded switch fluorescence ratio for this entry: `GGGGTTAGTT`
0.993

Record request: switch fluorescence ratio value, item `ATCTCTCATA`
1.01

I would be grateful if you could share the reported switch fluorescence ratio for `GAGTAGTAGT` .
0.967

Report switch fluorescence ratio for `CTGTGTAGTG` please.
0.995

Suppose we examine the sequence `ATTAATCAGT` ; what switch fluorescence ratio value has been reported?
1

Suppose we examine the sequence `TTCCCGCTGT` ; what switch fluorescence ratio value has been reported?
1.75

Form field: reported switch fluorescence ratio of `ACTTGAGGTC`
0.991

Endpoint output: switch fluorescence ratio of `CACGGGCGGG` . Value?
1.05

Looking for the measured switch fluorescence ratio of `AAAGGGGTTG` , can you help?
1.01

Entry `TCATACTTTT` : reported switch fluorescence ratio = ?
1.01

Which switch fluorescence ratio reading was recorded for the sequence `AGCGTATGCA` ?
1.02

Item `TGTGCTATTT` has what recorded switch fluorescence ratio?
1.09

Entry `ACTCTCGAGG` has what switch fluorescence ratio?
1.24

Give its switch fluorescence ratio value. Item: `TTTTCAGTAG`
1

What value of switch fluorescence ratio has been recorded for this entry: `GGGCGCTGGG`
1

// returns reported switch fluorescence ratio for input `CCGGTTTTTA`
0.996

Which switch fluorescence ratio is reported for this sequence? `CTATATAAAT`
0.997

Would you kindly share the measured switch fluorescence ratio for `GGGGTCAGGG` ?
1.02

Returns the measured switch fluorescence ratio for the input sequence. Input: `TGGTCGTCTT`
1.05

Consider the sequence `CAGCCCTATA` and give its measured switch fluorescence ratio.
1.04
